These entries and their values trace back to patent US20110021776A1.

# procedureDetails: Brain/plasma pharmacokinetics, single i.v. bolus in rats
# Assay type: in vivo, Sprague-Dawley rats
# measurementConditions: Sprague-Dawley, rat, plasma, iv, 10 mg/kg, 10 mg/kg bolus i.v., normal rats, t = 8 h; the data is the value of AUC(inf); read-out: AUC0-t of Plasma

compound	AUC(0-t) / ng·h/mL
Cc1nc2c(c3c1[nH]c1ccccc13)C(=O)CC(C)(C)C2 [Example 1]	2350

---

# procedureDetails: Brain/plasma pharmacokinetics, single i.v. bolus in rats
# Format: in vivo, Sprague-Dawley rats
# measurementConditions: Sprague-Dawley, rat, plasma, intravenous; 10 mg/kg bolus i.v., normal rats, time 1 h; read-out: Mean concentration in plasma

compound	valueUnit	concentration at 1 h
Cc1nc2c(c3c1[nH]c1ccccc13)C(=O)CC(C)(C)C2 [Example 1]	ng/mL	476

---

# procedureDetails: Brain/plasma pharmacokinetics, single i.v. bolus in rats
# Type: in vivo, Sprague-Dawley rats
# measurementConditions: Sprague-Dawley, rat, plasma, iv, 10 mg/kg, 10 mg/kg bolus i.v., normal rats, t = 1 h; read-out: AUC0-t of Plasma
parameterMeasured: AUC(0-t)

1) Cc1nc2c(c3c1[nH]c1ccccc13)C(=O)CC(C)(C)C2 1680 ng·h/mL

---

# procedureDetails: Plasma pharmacokinetics, single dose in rats
# Assay type: in vivo, Sprague-Dawley rats
# measurementConditions: Sprague-Dawley, rat, po; p.o. 10 mg/kg, plasma, normal rats; read-out: MRT0-last
parameterMeasured: MRT last (min)

1. Cc1nc2c(c3c1[nH]c1ccccc13)C(=O)CC(C)(C)C2 36.6

---

# procedureDetails: Plasma pharmacokinetics, single dose in rats
# Assay type: in vivo, Sprague-Dawley rats
# measurementConditions: Sprague-Dawley, rat, po; p.o. 10 mg/kg, plasma, normal rats

molecule	AUC(0-t) (ng·h/mL)
Cc1nc2c(c3c1[nH]c1ccccc13)C(=O)CC(C)(C)C2 [Example 1]	541

---

# procedureDetails: Plasma pharmacokinetics, single dose in rats
# Format: in vivo, Sprague-Dawley rats
# measurementConditions: Sprague-Dawley, rat, iv; i.v. 2 mg/kg, plasma, normal rats
parameterMeasured: half-life (min)

1) Cc1nc2c(c3c1[nH]c1ccccc13)C(=O)CC(C)(C)C2 22.2
